# Lookup of reported EC50 keyed by entry
Molecular target: hAT1R (Homo sapiens, UniProt P30556)
Sequence (P30556 whole entry): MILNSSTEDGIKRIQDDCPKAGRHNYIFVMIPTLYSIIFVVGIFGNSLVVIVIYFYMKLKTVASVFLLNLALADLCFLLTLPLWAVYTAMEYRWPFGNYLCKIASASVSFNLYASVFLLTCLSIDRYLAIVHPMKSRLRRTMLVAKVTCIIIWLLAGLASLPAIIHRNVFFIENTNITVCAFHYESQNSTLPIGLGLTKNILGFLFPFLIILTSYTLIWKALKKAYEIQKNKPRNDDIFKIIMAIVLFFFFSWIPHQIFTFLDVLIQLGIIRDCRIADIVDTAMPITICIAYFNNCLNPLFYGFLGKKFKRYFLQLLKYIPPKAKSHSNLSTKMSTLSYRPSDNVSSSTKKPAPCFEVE
Assay: cell-based
Details: agonist mode; read-out: BRET P63 EC50

Consider the reported EC50 for these compounds:
[
  {
    "Mol smiles": "CCOc1nc2cccc(C(=O)O)c2n1Cc1ccc(-c2cc(Oc3ccccc3)ccc2-c2nn[nH]n2)cc1",
    "EC50": "> 10 µM"
  },
  {
    "Mol smiles": "CCc1nc2c(C)cc(C)nc2n1Cc1ccc(-c2cc(-n3cc(CCO)nn3)ccc2-c2nnn[nH]2)cc1",
    "EC50": "> 100 µM"
  },
  {
    "Mol smiles": "CCCCc1nc(Cl)c(C(=O)O)n1Cc1ccc(-c2cc(-c3cccc4[nH]ccc34)ccc2-c2nn[nH]n2)cc1",
    "EC50": "> 100 µM"
  }
]

Identify measured EC50 corresponding to CCOc1nc2cccc(C(=O)O)c2n1Cc1ccc(-c2cc(-c3cnccn3)ccc2-c2noc(=O)[nH]2)cc1
> 10 µM

====

Target: hAT1R (Homo sapiens, UniProt P30556)
Experiment: cell-based
Conditions: agonist mode; read-out: BRET P63 EC50
The reader will find reported EC50 values listed item by item below.

These solved cases illustrate the format of a correct answer.
[
  {
    "Molecule": "CCCCC(=O)N(Cc1ccc(-c2cc(N3CCCC(C)C3)ccc2-c2nn[nH]n2)cc1)C1(C(=O)O)CCCCC1 (centres unmarked)",
    "EC50": "> 100 µM"
  },
  {
    "Molecule": "CCOc1nc2cccc(C(=O)O)c2n1Cc1ccc(-c2cc(N3CCC[C@H](C)C3)ccc2-c2nn[nH]n2)cc1",
    "EC50": "> 10 µM"
  },
  {
    "Molecule": "CCOc1nc2cccc(C(=O)O)c2n1Cc1ccc(-c2cc(Oc3cnccc3C)ccc2-c2nn[nH]n2)cc1",
    "EC50": "> 10 µM"
  }
]

State, in one line, measured EC50 of CCCCc1nc(Cl)c(C(=O)O)n1Cc1ccc(-c2cc(N3CCC[C@H](C)C3)ccc2-c2nn[nH]n2)cc1
> 10 µM

Please report the measured EC50 for CCc1nc2c(C)cc(C)nc2n1Cc1ccc(-c2cc(-c3cncc(C)c3)ccc2-c2nn[nH]n2)cc1
> 10 µM

====

Measured pEC50 by item
Molecular target: UniProt:P30556
Assay: cell-based
Conditions: agonist mode; read-out: BRET P63 EC50
pEC50: −log10 of the molar value.

Illustrative cases are given below, each with its answer.
[
  {
    "Compound": "CCCCC1=NC2(CCCC2)C(=O)N1Cc1ccc(-c2cc(-c3ccccc3)ccc2-c2nn[nH]n2)cc1",
    "Target of assay": "UniProt:P30556",
    "Metric name": "pEC50",
    "Result": "< 5.00"
  },
  {
    "Compound": "CCC1=NC2(CCOC2)C(=O)N1Cc1ccc(-c2cc(-c3ccccc3)ccc2-c2nnn[nH]2)cc1 (single isomer, unassigned)",
    "Target of assay": "UniProt:P30556",
    "Metric name": "pEC50",
    "Result": "< 5.00"
  },
  {
    "Compound": "CCCC1=NC2(CCOC2)C(=O)N1Cc1ccc(-c2cc(-c3ccccc3)ccc2-c2nnn[nH]2)cc1 (single isomer, unassigned)",
    "Target of assay": "UniProt:P30556",
    "Metric name": "pEC50",
    "Result": "< 5.00"
  }
]

# context switch: different compound, same pEC50
Kindly indicate its recorded pEC50. Item: CCCCC(=O)N(Cc1ccc(-c2cc(-c3ccccc3)ccc2-c2nn[nH]n2)cc1)C1(C(=O)O)CCN(c2ccccc2)CC1
< 4.00
